Data origin, for the record: the supplement of paper PMC10567573

# Lookup of reported protein stability index keyed by entry
B1: LOXL2 (parent)
chain: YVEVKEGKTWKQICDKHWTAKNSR

Variants of: B1
Assay: protein stability index of a GFP-peptide fusion (GPS, HEK-293T) (PSI 1-6); higher = more stable;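 further: lentivirally expressed fusions sorted by FACS into six bins by GFP to DsRed ratio, PSI derived from sequencing read proportions per bin multiplied by bin number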
Conditions: c terminus: a fixed tail appended
Please give the numeric answer without any surrounding text.

// known answers, use as guide
>>> experimental_result("YQEVKEGKTWKQICDKHWTAKNSR [V2Q]")
2.16
>>> experimental_result("YVRVKEGKTWKQICDKHWTAKNSR [E3R]")
1.88
>>> experimental_result("EVEVKEGKTWKQICDKHWTAKNSR [Y1E]")
3.46
>>> experimental_result("YVEVKEGKTFKQICDKHWTAKNSR [W10F]")
2.47
>>> experimental_result("YVEVKEGKTWKQVCDKHWTAKNSR [I13V]")
2.44
>>> experimental_result("YVEVKEGKKWKQICDKHWTAKNSR [T9K]")
2.43
>>> experimental_result("YVEIKEGKTWKQICDKHWTAKNSR [V4I]")
2.55
>>> experimental_result("YVEVKELKTWKQICDKHWTAKNSR [G7L]")
1.95

// protein stability index lookup, variant = YVEVKEGKTWKQICDKHWTAANSR [K21A] , result: 2.3

The value of protein stability index measured for the variant DVEVKEGKTWKQICDKHWTAKNSR [Y1D] turned out to be 3.52

Form field protein stability index, entry YVEVKEGKTWKQICDKHWTAKNLR [S23L] : 2.42

Reported protein stability index of YVEVKEGKTWKQDCDKHWTAKNSR [I13D] : 3.54

Lab note: YREVKEGKTWKQICDKHWTAKNSR [V2R] gave protein stability index of 3.03

The reported protein stability index of the variant YVEVKEGKWWKQICDKHWTAKNSR [T9W] was 3.01

So, YVECKEGKTWKQICDKHWTAKNSR [V4C] ? Its protein stability index was 2.22

# protein stability index (variant: YVEVKEGKTWKPICDKHWTAKNSR [Q12P] ) is 2.31

Item: YVEVKEGKTWKQICDKHDTAKNSR [W18D] | protein stability index: 3.01

Value of measured protein stability index for the entry YVEVKEGKTWKAICDKHWTAKNSR [Q12A] : 1.56

The recorded protein stability index for YWEVKEGKTWKQICDKHWTAKNSR [V2W] is 1.98

Just so you know, measured protein stability index for YVERKEGKTWKQICDKHWTAKNSR [V4R] came out at 2.1

The variant listed as YVEVKEGKTWKQICDKHWTAKNVR [S23V] shows protein stability index equal to 2.15

Sample YVEVKNGKTWKQICDKHWTAKNSR [E6N] ; protein stability index observed: 2.44
